molecular target: Beta Lactamase (Pseudomonas aeruginosa); assay: BLA reporter interference, concentration series – BLA reporter cells, FRET fluorescence, artefact control for TLR9-MyD88 binding inhibitor project, dose response (AID 588341); format: cell-based;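 also: cell based assay in CHO-K1 cells stably expressing beta-lactamase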
Sequence (Q932Y6 whole entry): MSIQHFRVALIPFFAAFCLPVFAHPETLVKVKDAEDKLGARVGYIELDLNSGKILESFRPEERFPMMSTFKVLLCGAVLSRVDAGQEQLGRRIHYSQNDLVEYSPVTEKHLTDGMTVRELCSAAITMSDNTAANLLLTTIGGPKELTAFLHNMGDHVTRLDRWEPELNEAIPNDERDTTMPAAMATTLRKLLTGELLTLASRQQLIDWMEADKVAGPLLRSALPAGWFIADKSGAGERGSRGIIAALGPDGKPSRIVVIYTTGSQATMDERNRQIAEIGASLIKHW
Active and inactive are the calls of the source. Rule as the data show it: active = IC50 of 10 µM or less and inactive = more.
// classify into active, inactive

Worked cases, answers included:
[[record]]
compound = "CCOC(=O)c1ccc(NC(=O)c2nc(S(=O)(=O)Cc3ccccc3)ncc2Cl)cc1"
class = "active"

[[record]]
compound = "O=C1C=CC(=O)N1CCCCCCCCCCN1C(=O)C=CC1=O"
class = "inactive"

[[record]]
compound = "CCOC(=O)CS(=O)(=O)c1nc(-c2ccc(F)cc2)cc(C(F)(F)F)n1"
class = "inactive"


Moving on to another molecule below.
Q) Status in this test for CS(=O)(=O)c1nc(-c2ccc(F)cc2)cc(C(F)(F)F)n1 ?
A) inactive

These entries and their values trace back to ChEMBL document CHEMBL1201862.
